Below, each of the molecules is paired with its reported Activity value.
Biological target: Melanocortin receptor 4 (Homo sapiens)
Sequence (P32245 whole entry): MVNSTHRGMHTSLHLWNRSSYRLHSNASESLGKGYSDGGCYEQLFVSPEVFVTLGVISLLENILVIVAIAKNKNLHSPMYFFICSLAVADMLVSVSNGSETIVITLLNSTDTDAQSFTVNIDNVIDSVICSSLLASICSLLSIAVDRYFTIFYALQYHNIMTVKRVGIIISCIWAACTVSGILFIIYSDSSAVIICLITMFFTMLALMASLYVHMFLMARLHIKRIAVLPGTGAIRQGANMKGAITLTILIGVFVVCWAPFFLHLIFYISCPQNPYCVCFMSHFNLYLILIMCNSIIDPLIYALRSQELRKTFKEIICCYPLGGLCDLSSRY
Test: […] at human MC4R assessed as stimulation of cAMP production
Type: functional
Design: concentration or dose not given beside the values

[
  {
    "MOLECULE": "CN1CCN[C@@H](C(=O)N[C@@H](Cc2ccc(F)cc2)C(=O)N2CCC(C(=O)NC(C)(C)C)(C3C=CCCC3)CC2)C1 (stereo not given in full)",
    "SYSTEM_NAME": "Melanocortin receptor 4 (Homo sapiens)",
    "Activity": "76%"
  },
  {
    "MOLECULE": "Cn1nnnc1CC1(C2CCCCC2)CCN(C(=O)[C@H](Cc2ccc(Cl)cc2)NC(=O)[C@H]2Cc3ccccc3CN2)CC1",
    "SYSTEM_NAME": "Melanocortin receptor 4 (Homo sapiens)",
    "Activity": "96%"
  },
  {
    "MOLECULE": "N#CCC1(C2CCCCC2)CCN(C(=O)[C@H](Cc2ccc(Cl)cc2)NC(=O)[C@H]2Cc3ccccc3CN2)CC1",
    "SYSTEM_NAME": "Melanocortin receptor 4 (Homo sapiens)",
    "Activity": "51%"
  },
  {
    "MOLECULE": "N#CCC1(C2CCCC2)CCN(C(=O)[C@H](Cc2ccc(Cl)cc2)NC(=O)[C@H]2Cc3ccccc3CN2)CC1",
    "SYSTEM_NAME": "Melanocortin receptor 4 (Homo sapiens)",
    "Activity": "52%"
  },
  {
    "MOLECULE": "CCC(C)C1(Cc2nnnn2C)CCN(C(=O)[C@H](Cc2ccc(Cl)cc2)NC(=O)[C@H]2Cc3ccccc3CN2)CC1 (stereo not given in full)",
    "SYSTEM_NAME": "Melanocortin receptor 4 (Homo sapiens)",
    "Activity": "107%"
  },
  {
    "MOLECULE": "CN1CCN[C@@H](C(=O)N[C@@H](Cc2ccc(F)cc2)C(=O)N2CCC(C(=O)NC(C)(C)C)(C3CCCCC3)CC2)C1",
    "SYSTEM_NAME": "Melanocortin receptor 4 (Homo sapiens)",
    "Activity": "98%"
  },
  {
    "MOLECULE": "CN1CCN[C@@H](C(=O)N[C@@H](Cc2ccc(F)cc2)C(=O)N2CCC(C(=O)NC(C)(C)C)(C3CCC(C)(C)CC3)CC2)C1",
    "SYSTEM_NAME": "Melanocortin receptor 4 (Homo sapiens)",
    "Activity": "87%"
  },
  {
    "MOLECULE": "CCCCC1(CC#N)CCN(C(=O)[C@H](Cc2ccc(Cl)cc2)NC(=O)[C@H]2Cc3ccccc3CN2)CC1",
    "SYSTEM_NAME": "Melanocortin receptor 4 (Homo sapiens)",
    "Activity": "40%"
  },
  {
    "MOLECULE": "Cn1nnnc1CC1(C2CCOCC2)CCN(C(=O)[C@H](Cc2ccc(Cl)cc2)NC(=O)[C@H]2Cc3ccccc3CN2)CC1",
    "SYSTEM_NAME": "Melanocortin receptor 4 (Homo sapiens)",
    "Activity": "90%"
  },
  {
    "MOLECULE": "CN1CCN[C@@H](C(=O)N[C@@H](Cc2ccc(F)cc2)C(=O)N2CCC(CC3CCC3)(C(=O)NC(C)(C)C)CC2)C1",
    "SYSTEM_NAME": "Melanocortin receptor 4 (Homo sapiens)",
    "Activity": "55%"
  },
  {
    "MOLECULE": "CN1CCN[C@@H](C(=O)N[C@@H](Cc2ccc(F)cc2)C(=O)N2CCC(C(=O)NC(C)(C)C)(C3(C)CCCCC3)CC2)C1",
    "SYSTEM_NAME": "Melanocortin receptor 4 (Homo sapiens)",
    "Activity": "79%"
  },
  {
    "MOLECULE": "CCCCCCC1(Cc2nnnn2C)CCN(C(=O)[C@H](Cc2ccc(Cl)cc2)NC(=O)[C@H]2Cc3ccccc3CN2)CC1",
    "SYSTEM_NAME": "Melanocortin receptor 4 (Homo sapiens)",
    "Activity": "84%"
  },
  {
    "MOLECULE": "Cn1nnnc1CC1(CC(C)(C)C)CCN(C(=O)[C@H](Cc2ccc(Cl)cc2)NC(=O)[C@H]2Cc3ccccc3CN2)CC1",
    "SYSTEM_NAME": "Melanocortin receptor 4 (Homo sapiens)",
    "Activity": "76%"
  },
  {
    "MOLECULE": "CC(C)CC1(Cc2nnnn2C)CCN(C(=O)[C@H](Cc2ccc(Cl)cc2)NC(=O)[C@H]2Cc3ccccc3CN2)CC1",
    "SYSTEM_NAME": "Melanocortin receptor 4 (Homo sapiens)",
    "Activity": "98%"
  },
  {
    "MOLECULE": "CN1CCN[C@@H](C(=O)N[C@@H](Cc2ccc(F)cc2)C(=O)N2CCC(CC3CC3)(C(=O)NC(C)(C)C)CC2)C1",
    "SYSTEM_NAME": "Melanocortin receptor 4 (Homo sapiens)",
    "Activity": "54%"
  }
]

// data source = ChEMBL document CHEMBL1139816
